# System: MS2 coat protein
# EXPERIMENTAL PROTOCOL: apparent KD of MS2 coat protein, switch ON state; designed switch direction (-1 OFF switch, 1 ON switch): 1; higher = weaker reporter binding
# PROTOCOL CONDITIONS: FMN input: 0 or 200 uM; Eterna round: R93 (includes R88 designs)
TEST READOUT: apparent KD of MS2 coat protein (nM)
Dear colleague, please return just the value in nM, with no unit written.

RESIDUE SEQUENCE	TEST READOUT	MEASURE UNIT	RECORDED MEASUREMENT
AAUCCAAAUAGUUAGGAUAUGGGAAUUAAAACAUGAGGAUCACCCAUGUAAUUGAAACAAGUUAACCAGAAGGGACAGGGUGAAA [JR_SS002_Sub209]	apparent KD of MS2 coat protein	nM	68.8

Suppose we examine the sequence CGCGAACAUGAGGAUCACCCAUGUGAAAAACACAGAGGAUAUGUCGCAUGCGUGUAAAAGACAGAAGGCUGUCGCG [mod of top voted: #3] ; what apparent KD of MS2 coat protein value has been reported?
19.7

Suppose we examine the sequence AAUACAAAUAGUCAGGAUAUCAAAAAUAAGACAUGAGGAUCACCCAUGUAAUAAGUAAAAGUAAAUGAGAAGGGACAGGGUGAAA [JR_SS002_Sub401] ; what apparent KD of MS2 coat protein value has been reported?
530

Suppose we examine the sequence GCAAAACAUGAGGAUCACCCAUGUCAACAAAAUCAAGGAUAUGAGCCAGCAAUGCCGGCAUCAGAAGGUGAACCUU [Enqule] ; what apparent KD of MS2 coat protein value has been reported?
53.2

Suppose we examine the sequence AAGAAACAUGAGGAUCACCCAUGUAAGAUAAACACAGGAUAUGCGAAAGAAAUAAAGAAAGCAGAAGGGUGAAGAA [Mat - Same State 1 - Tesla mod - D147] ; what apparent KD of MS2 coat protein value has been reported?
14.3

Suppose we examine the sequence AAAUGACAUGAGGAUCACCCAUGUCCACCAAACGGAGGAUAUUGGGCGGAAAAACGUUGUUAAGAAGGCCGAAAAA [SS1-1.0] ; what apparent KD of MS2 coat protein value has been reported?
143

Suppose we examine the sequence AUAAAACAUGAGGAUCACCCAUGUAGAAAUAUGGGAGGAUAUACAAAGACGAAAGUCAAAGUAGAAGGCCUAAAAG [Mod of Meechl's design Meechl MS2 SS1 2] ; what apparent KD of MS2 coat protein value has been reported?
24

Suppose we examine the sequence AAAUAAAAAAAAAAGGAUAUUCAUGUGAAAACAUGAGGAUCACCCAUGUAAAAAAAUAAAAAUAAAAAGAAGGAAAAAUAAAAAA [SS2: 86 No MS2] ; what apparent KD of MS2 coat protein value has been reported?
571
